- Test system: L-type Ca2+ channel (LTCC, Cav1.2) (Rattus norvegicus, UniProt P22002)
- Construct: gene Cacna1c; native channel in single rat tail main artery myocytes
- Sequence (P22002 whole entry): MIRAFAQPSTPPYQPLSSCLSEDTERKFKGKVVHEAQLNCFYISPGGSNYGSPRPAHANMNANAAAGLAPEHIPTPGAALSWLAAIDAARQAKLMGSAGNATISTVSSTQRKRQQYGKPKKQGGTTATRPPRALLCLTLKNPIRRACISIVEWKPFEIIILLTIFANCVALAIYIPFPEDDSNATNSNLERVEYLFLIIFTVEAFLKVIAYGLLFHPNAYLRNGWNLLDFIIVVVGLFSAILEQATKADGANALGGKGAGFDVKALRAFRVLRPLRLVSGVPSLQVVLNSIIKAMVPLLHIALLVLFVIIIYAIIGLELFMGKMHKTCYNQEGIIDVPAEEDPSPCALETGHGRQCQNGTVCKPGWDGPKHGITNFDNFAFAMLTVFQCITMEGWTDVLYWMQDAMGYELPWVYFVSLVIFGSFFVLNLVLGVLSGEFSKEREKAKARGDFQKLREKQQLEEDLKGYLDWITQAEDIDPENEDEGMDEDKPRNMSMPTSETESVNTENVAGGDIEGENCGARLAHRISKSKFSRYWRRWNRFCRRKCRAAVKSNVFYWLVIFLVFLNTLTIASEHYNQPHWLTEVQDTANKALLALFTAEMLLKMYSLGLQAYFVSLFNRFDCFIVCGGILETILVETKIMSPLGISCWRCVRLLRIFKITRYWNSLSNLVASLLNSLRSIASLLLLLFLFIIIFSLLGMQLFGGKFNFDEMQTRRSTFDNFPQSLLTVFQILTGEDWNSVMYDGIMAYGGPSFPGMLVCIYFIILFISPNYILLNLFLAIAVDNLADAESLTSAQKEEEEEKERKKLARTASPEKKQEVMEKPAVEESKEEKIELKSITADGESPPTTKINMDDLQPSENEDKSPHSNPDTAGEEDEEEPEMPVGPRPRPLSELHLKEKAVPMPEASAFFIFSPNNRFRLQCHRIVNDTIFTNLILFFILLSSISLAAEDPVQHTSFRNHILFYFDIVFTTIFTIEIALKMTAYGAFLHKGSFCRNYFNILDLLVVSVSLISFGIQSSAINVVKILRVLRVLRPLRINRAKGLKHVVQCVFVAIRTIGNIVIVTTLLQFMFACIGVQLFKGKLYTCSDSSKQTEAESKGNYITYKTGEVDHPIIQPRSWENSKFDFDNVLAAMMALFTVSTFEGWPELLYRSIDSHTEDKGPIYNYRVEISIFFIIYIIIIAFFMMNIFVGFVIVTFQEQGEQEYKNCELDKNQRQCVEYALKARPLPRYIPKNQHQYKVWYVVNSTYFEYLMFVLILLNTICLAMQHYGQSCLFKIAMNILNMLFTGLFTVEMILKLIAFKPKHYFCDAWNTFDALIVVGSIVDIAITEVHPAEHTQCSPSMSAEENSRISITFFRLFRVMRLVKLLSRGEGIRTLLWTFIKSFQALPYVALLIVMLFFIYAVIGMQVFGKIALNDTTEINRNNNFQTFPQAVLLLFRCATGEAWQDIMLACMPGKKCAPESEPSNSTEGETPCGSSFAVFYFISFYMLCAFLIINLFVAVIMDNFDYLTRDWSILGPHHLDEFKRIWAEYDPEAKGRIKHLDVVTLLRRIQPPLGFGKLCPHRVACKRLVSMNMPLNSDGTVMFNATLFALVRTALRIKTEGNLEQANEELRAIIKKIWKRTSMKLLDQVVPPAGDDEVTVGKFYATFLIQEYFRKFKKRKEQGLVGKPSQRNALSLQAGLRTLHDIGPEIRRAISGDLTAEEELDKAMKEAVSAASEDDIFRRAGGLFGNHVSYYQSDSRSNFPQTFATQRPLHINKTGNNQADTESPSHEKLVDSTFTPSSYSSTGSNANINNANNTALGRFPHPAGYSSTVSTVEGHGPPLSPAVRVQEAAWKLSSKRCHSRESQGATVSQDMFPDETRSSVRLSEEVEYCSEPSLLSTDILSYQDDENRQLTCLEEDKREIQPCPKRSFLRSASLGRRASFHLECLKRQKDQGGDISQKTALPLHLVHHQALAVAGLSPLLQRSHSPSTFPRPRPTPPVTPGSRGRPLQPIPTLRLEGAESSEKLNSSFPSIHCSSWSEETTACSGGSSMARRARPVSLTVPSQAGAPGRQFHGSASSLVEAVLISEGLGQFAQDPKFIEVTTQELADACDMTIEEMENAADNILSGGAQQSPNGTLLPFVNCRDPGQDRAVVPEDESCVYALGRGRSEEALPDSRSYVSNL
- Measurement description: whole-cell patch clamp, IBa(L); also potentiates [3H]diltiazem binding in rat cardiomyocytes ([…])
- Assay type: cell-based
Property label: IC50

Query block: Query: IC50; subject: O=c1onc2n1-c1ccc(Cl)cc1SC2(O)c1ccc(Br)cc1 (stereo not shown) [compound 30]
Result block: ~3 µM

----------
- Test system: L-type Ca2+ channel (LTCC, Cav1.2) (Rattus norvegicus, UniProt P22002)
- Construct: gene Cacna1c; native channel in single rat tail main artery myocytes
- Measurement description: whole-cell patch clamp, IBa(L)
- Assay type: cell-based
pIC50: −log10 of the molar value.
Property label: pIC50

Query block: Query: pIC50; subject: CC1=CSC(OCCN2CCCCC2)(c2ccc(Br)cc2)c2noc(=O)n21 (stereo not shown) [compound 32]
Result block: ~4.52
